Consider compounds characterized by their IC50 with FGFR1 (Homo sapiens).
Sequence (P11362 22-822, species assumed): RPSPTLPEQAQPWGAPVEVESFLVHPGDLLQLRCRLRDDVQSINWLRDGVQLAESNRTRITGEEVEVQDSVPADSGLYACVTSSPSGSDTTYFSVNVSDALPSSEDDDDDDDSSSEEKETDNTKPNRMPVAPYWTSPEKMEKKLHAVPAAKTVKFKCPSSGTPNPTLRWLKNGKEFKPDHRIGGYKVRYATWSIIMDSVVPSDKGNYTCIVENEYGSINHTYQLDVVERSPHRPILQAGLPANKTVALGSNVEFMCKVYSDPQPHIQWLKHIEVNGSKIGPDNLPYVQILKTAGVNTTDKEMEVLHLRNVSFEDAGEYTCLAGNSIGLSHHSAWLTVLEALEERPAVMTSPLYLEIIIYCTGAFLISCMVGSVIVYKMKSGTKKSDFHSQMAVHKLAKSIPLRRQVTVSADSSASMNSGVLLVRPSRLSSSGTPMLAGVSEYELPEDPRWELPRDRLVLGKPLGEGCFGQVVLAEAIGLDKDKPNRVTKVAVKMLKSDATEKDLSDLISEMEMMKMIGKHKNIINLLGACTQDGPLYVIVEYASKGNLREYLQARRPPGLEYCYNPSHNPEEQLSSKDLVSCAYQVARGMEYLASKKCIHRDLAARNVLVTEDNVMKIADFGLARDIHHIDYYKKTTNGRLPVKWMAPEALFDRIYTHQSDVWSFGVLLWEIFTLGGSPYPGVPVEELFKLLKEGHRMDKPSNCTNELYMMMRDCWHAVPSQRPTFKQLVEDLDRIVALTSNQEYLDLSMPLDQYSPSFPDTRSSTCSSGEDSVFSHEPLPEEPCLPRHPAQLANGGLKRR

Below: 5 compounds and their reported IC50.
compound="CCN(CC)CCOc1ccc(Nc2ncnc(-n3c(N)nc4ccccc43)n2)cc1OC [Compound 652]" recorded_metric=IC50 endpoint_result="< 0.892 µM"
compound="COc1cc(Nc2ncnc(-n3c(Nc4ccccc4)nc4ccccc43)n2)cc(OC)c1OC [Compound 336]" recorded_metric=IC50 endpoint_result="< 0.852 µM"
compound="COc1cc(Nc2ncnc(Nc3ccc(C)c(F)c3)n2)cc(OC)c1OC [Compound 300]" recorded_metric=IC50 endpoint_result="6.23 to 9.08 µM"
compound="COc1cc(Nc2ncnc(-n3c(N[C@@H](CO)c4ccccc4)nc4ccccc43)n2)cc(OC)c1OC [Compound 1036]" recorded_metric=IC50 endpoint_result="< 0.779 µM"
compound="COc1cc(Nc2ncnc(-c3cccnc3NC(C)C)n2)cc(OC)c1OC [Compound 1089]" recorded_metric=IC50 endpoint_result="> 11.4 µM"

Ask | Enter reported IC50 observed with FGFR1 (Homo sapiens) for COc1cc(Nc2ncnc(Nc3ccc4cn[nH]c4c3)n2)cc(OC)c1OC [Compound 70]
Reply | 1.02 to 6.1 µM

Ask | Enter reported IC50 observed with FGFR1 (Homo sapiens) for CCc1cccc(Nc2ncnc(-n3c(N)nc4ccccc43)n2)c1 [Compound 655]
Reply | 1.21 to 7.24 µM

Ask | Enter reported IC50 observed with FGFR1 (Homo sapiens) for COc1cc(Nc2ncnc(-n3ncc4ccccc43)n2)cc(OC)c1OC [Compound 240]
Reply | 6.34 to 9.25 µM

----------
Target: Itk (Homo sapiens)
Construct: Kinases are expressed as either kinase domains or full length constructs; made in house
Sequence (Q08881 whole entry, species assumed, the tested form may be a part): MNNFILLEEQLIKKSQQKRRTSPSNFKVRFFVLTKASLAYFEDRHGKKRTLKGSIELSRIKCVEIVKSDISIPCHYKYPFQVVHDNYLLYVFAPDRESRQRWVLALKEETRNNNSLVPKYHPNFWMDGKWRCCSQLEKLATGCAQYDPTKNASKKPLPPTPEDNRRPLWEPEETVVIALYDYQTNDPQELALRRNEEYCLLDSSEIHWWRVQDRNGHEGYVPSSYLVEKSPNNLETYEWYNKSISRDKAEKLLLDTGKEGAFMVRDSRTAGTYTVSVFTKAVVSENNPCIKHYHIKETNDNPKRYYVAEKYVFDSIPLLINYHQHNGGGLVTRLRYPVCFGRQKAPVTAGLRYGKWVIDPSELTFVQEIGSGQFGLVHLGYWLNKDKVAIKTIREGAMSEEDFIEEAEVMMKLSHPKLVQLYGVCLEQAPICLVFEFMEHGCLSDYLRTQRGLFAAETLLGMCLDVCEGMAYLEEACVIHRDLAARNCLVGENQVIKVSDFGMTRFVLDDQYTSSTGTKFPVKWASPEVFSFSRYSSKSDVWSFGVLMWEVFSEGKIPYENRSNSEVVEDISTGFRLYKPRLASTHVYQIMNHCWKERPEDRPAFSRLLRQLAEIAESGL
Assay: Kinase inhibition assay (33P transfer), Itk
Assay type: biochemical
Conditions: Table 3; read-out: Itk-1
Listing of entries alongside the reported IC50.

Below: 4 molecules and their reported IC50.
molecule="COc1cc(Nc2ncnc(Nc3cc(OC)c(OC)c(OC)c3)n2)cc(OC)n1 [Compound 253]" recorded_metric=IC50 endpoint_result="> 10.9 µM"
molecule="Clc1cccc(Nc2ncnc(-n3cccc3)n2)c1 [Compound 275]" recorded_metric=IC50 endpoint_result="> 16.6 µM"
molecule="COc1cc(Nc2ncnc(-n3c(Nc4ccc(C#N)cc4)nc4ccccc43)n2)cc(OC)c1OC [Compound 381]" recorded_metric=IC50 endpoint_result="> 9.1 µM"
molecule="COc1cc(Nc2ncnc(Nc3ccc(F)cc3)n2)cc(OC)c1OC [Compound 303]" recorded_metric=IC50 endpoint_result="> 12.1 µM"

// moving on: another record for IC50
Ask | Which IC50 is listed for COc1cc(Nc2ncnc(Nc3cccc(Oc4ccccc4)c3)n2)cc(OC)c1OC [Compound 105] ?
Reply | > 10.1 µM

----------
Molecular target: Kdr (Homo sapiens, UniProt P35968)
Construct: Kinases are expressed as either kinase domains or full length constructs; made in house
Sequence (P35968 20-1356, species assumed): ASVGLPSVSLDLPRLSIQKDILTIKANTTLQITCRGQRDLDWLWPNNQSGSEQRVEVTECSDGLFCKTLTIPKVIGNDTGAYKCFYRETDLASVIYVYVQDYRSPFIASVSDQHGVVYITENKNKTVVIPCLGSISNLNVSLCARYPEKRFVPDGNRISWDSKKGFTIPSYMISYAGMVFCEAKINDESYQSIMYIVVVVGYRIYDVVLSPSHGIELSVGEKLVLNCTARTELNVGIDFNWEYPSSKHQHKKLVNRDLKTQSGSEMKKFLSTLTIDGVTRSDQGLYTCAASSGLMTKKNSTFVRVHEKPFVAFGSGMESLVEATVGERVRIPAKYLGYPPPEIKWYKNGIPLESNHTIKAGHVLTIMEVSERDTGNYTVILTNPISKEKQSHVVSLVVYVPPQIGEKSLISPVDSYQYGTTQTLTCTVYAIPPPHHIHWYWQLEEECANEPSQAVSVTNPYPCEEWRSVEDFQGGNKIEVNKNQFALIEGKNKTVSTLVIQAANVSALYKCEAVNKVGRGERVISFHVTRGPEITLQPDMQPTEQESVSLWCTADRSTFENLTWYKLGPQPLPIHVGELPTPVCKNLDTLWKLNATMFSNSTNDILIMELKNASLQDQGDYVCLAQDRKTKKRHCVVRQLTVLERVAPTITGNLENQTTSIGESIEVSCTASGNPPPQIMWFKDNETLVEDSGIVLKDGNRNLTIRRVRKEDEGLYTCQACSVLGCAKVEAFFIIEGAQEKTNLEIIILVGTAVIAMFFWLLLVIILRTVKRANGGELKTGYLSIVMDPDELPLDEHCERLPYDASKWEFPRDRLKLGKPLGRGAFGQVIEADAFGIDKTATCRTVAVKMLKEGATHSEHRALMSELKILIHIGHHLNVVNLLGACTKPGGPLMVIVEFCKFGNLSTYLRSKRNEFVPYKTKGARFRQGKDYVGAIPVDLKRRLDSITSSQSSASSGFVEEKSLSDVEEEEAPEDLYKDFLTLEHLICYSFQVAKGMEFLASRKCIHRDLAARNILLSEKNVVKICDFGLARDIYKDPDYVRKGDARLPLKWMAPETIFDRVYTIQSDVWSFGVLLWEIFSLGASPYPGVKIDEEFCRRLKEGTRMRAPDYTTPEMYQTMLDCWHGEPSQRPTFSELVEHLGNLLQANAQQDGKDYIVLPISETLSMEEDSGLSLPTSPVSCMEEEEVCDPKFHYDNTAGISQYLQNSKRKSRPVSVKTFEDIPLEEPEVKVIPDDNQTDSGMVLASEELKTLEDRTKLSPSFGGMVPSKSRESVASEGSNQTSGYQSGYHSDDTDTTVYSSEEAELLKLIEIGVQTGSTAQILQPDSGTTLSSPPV
Experiment: Kinase inhibition assay (33P transfer), Kdr
Assay type: biochemical
Conditions: read-out: KDR-1
pIC50: −log10 of the molar value.
Recorded metric: pIC50

molecule=COc1cc(Nc2ncnc(-n3c(C)nc4ccccc43)n2)cc(OC)c1OC endpoint_result="> 5.99"

Ask | Which pIC50 is listed for CC(C)Nc1ncccc1-c1ncnc(Nc2ccc(C(N)=O)cc2)n1 ?
Reply | 5.16 to 5.94

Ask | Which pIC50 is listed for CCN1CCCC1CNc1ncnc(Nc2ccc(OC)c(OC)c2)n1 (stereo not drawn) ?
Reply | < 4.90

Ask | Which pIC50 is listed for COc1cc(Nc2ncnc(Nc3cccc4ccccc34)n2)cc(OC)c1OCCN1CCOCC1 ?
Reply | > 6.10

Ask | Which pIC50 is listed for Nc1nc2ccccc2n1-c1ncnc(Nc2ccc(Cl)cc2)n1 ?
Reply | 5.15 to 5.93

----------
Listing of entries alongside the reported pIC50.
Target: Kdr (Homo sapiens, UniProt P35968)
Construct: Kinases are expressed as either kinase domains or full length constructs; made in house
Assay: Kinase inhibition assay (33P transfer), Kdr
Assay type: biochemical
Settings: Table 3, class symbols; read-out: KDR-1
pIC50: −log10 of the molar value.

Below: 8 molecules and their reported pIC50.
molecule="O=C(O)Cc1cccc(Nc2ncnc(-c3cccnc3NCc3ccccc3)n2)c1 [Compound 1099]" recorded_metric=pIC50 endpoint_result="> 6.01"
molecule="COc1ccc(Nc2ncnc(Nc3ccc4c(c3)CCC4)n2)cc1OC [Compound 896]" recorded_metric=pIC50 endpoint_result="5.02 to 5.18"
molecule="COCCNc1ncnc(Nc2cc(-c3ccc(C(=O)OC)cc3)n[nH]2)n1 [Compound 816]" recorded_metric=pIC50 endpoint_result="< 4.91"
molecule="O=C(O)c1cccc(Nc2ncnc(-n3c(NCc4ccccc4)nc4ccccc43)n2)c1 [Compound 1069]" recorded_metric=pIC50 endpoint_result="> 6.04"
molecule="COC(=O)c1ccc(-c2cc(Nc3ncnc(NCc4ccccc4F)n3)[nH]n2)cc1 [Compound 814]" recorded_metric=pIC50 endpoint_result="< 4.97"
molecule="CNC(=O)c1cccc(Nc2ncnc(Nc3cc(-c4ccco4)[nH]n3)n2)c1 [Compound 826]" recorded_metric=pIC50 endpoint_result="> 5.97"
molecule="COc1ccc(Nc2ncnc(N(C)c3ccc(F)cc3F)n2)cc1OC [Compound 801]" recorded_metric=pIC50 endpoint_result="5.03 to 5.19"
molecule="C=CCN(c1cccc(Cl)c1)c1ncnc(Nc2cc(OC)cc(OC)c2)n1 [Compound 722]" recorded_metric=pIC50 endpoint_result="> 6.00"

// moving on: another record for pIC50
Ask | Which pIC50 is listed for COc1ccc(Nc2ncnc(NCC(=O)c3ccccc3)n2)cc1OC [Compound 857] ?
Reply | < 4.91

----------
Target: Zap-70 (Homo sapiens, UniProt P43403)
Construct: Kinases are expressed as either kinase domains or full length constructs; made in house
Sequence (P43403 whole entry, species assumed, the tested form may be a part): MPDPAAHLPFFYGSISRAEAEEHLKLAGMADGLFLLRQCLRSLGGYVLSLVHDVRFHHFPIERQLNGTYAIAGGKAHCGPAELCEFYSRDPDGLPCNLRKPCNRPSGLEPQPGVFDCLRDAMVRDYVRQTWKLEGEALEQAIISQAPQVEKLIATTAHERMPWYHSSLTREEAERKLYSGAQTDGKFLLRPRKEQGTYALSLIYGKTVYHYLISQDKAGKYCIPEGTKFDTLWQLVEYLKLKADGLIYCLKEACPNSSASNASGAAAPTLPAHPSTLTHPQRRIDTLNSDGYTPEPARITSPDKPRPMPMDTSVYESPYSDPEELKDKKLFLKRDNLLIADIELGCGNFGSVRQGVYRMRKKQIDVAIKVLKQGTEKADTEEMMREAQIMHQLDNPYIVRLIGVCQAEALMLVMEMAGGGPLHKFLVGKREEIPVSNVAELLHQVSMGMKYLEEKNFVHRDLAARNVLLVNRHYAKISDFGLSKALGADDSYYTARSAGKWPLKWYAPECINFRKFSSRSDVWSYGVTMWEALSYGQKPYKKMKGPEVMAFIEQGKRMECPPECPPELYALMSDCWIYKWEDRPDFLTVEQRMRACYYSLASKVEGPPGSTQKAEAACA
Assay: Kinase inhibition assay (33P transfer), Zap-70
Assay type: biochemical
Conditions: read-out: Zap-1
pIC50: −log10 of the molar value.
Recorded metric: pIC50

compound="COc1cc(Nc2ncnc(N[C@@H]3CCCc4ccccc43)n2)cc(OC)c1OC [Compound 620]" tested_system="Zap-70 (Homo sapiens, UniProt P43403)" endpoint_result="4.96 to 5.07"

Ask | Which pIC50 is listed for COc1cc(Nc2ncnc(Nc3ccc(C(C)=O)cc3)n2)cc(OC)c1OC [Compound 698] ?
Reply | < 4.94

Ask | Which pIC50 is listed for COc1cc(Nc2ncnc(Nc3cc(-c4cccc(C(F)(F)F)c4)n[nH]3)n2)cc(OC)c1OC [Compound 1000] ?
Reply | < 5.03

----------
Biological target: Lck (Homo sapiens)
Construct: Kinases are expressed as either kinase domains or full length constructs; made in house
Sequence (P06239 whole entry, species assumed, the tested form may be a part): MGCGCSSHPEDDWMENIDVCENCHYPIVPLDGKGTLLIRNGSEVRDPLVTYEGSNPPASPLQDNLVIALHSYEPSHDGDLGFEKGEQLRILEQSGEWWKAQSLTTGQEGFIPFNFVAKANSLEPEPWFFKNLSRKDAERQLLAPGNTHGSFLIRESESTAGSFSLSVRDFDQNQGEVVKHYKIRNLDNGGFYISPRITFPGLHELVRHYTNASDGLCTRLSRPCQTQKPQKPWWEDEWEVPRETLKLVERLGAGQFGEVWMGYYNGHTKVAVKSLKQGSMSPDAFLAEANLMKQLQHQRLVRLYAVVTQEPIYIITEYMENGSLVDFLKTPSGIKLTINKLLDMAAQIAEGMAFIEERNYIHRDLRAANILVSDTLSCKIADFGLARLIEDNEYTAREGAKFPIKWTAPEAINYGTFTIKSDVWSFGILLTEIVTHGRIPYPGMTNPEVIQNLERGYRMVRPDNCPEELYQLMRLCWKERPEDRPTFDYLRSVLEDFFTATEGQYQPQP
Assay: Kinase inhibition assay (33P transfer), Lck
Assay type: biochemical
Details: Table 3; read-out: Lck-1
pIC50: −log10 of the molar value.
Recorded metric: pIC50

Below: 8 compounds and their reported pIC50.
input_smiles=COc1cc(Nc2ncnc(Nc3cccc(C(=O)O)c3)n2)cc(OC)c1OC recorded_metric=pIC50 endpoint_result="5.22 to 6.00"
input_smiles=O=C(Nc1cccc(Nc2ncnc(-n3c(=O)[nH]c4ccccc43)n2)c1)O[C@@H]1CCOC1 recorded_metric=pIC50 endpoint_result="< 4.98"
input_smiles=COc1cc(Nc2ncnc(-c3ccnc(N4CCCCC4)c3)n2)cc(OC)c1OC recorded_metric=pIC50 endpoint_result="5.25 to 6.02"
input_smiles=COc1cc(Nc2ncnc(Nc3ccc(C)c(N)c3)n2)cc(OC)c1OC recorded_metric=pIC50 endpoint_result="5.20 to 5.98"
input_smiles=COc1cc(Nc2ncnc(-c3cccs3)n2)cc(OC)c1OC recorded_metric=pIC50 endpoint_result="5.16 to 5.93"
input_smiles=C=CCN(c1ccc(Cl)cc1)c1ncnc(Nc2cc(OC)c(OC)c(OC)c2)n1 recorded_metric=pIC50 endpoint_result="5.25 to 6.03"
input_smiles=COc1ccc(Nc2ncnc(N(CC(=O)OC(C)(C)C)c3ccc(Cl)cc3)n2)cc1OC recorded_metric=pIC50 endpoint_result="5.13 to 5.29"
input_smiles=COc1cc(Nc2ncnc(Nc3ccc(F)cc3)n2)cc(OC)c1OC recorded_metric=pIC50 endpoint_result="5.19 to 5.97"

Ask | Which pIC50 is listed for COc1cc(C)c(Nc2ncnc(Nc3cc(-c4ccco4)n[nH]3)n2)cc1OC ?
Reply | 5.21 to 5.99

Ask | Which pIC50 is listed for Oc1ccc(Nc2ncnc(-c3ccccc3)n2)cc1 ?
Reply | 4.88 to 5.04

----------
Consider molecules characterized by their pIC50 with Lyn (Homo sapiens).
Sequence (P07948 whole entry, species assumed): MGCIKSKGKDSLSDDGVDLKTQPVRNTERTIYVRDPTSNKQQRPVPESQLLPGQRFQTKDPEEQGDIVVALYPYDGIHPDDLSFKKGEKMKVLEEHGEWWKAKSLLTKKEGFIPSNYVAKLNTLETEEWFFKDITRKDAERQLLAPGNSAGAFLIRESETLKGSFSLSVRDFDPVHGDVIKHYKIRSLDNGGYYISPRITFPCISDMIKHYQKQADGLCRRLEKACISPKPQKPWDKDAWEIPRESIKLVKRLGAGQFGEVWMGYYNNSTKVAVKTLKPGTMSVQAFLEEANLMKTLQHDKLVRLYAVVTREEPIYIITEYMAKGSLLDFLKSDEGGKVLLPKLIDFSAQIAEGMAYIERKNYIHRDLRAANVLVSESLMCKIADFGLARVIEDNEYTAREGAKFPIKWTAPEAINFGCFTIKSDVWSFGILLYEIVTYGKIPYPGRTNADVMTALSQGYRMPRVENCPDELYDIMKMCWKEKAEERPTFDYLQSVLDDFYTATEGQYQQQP
pIC50: −log10 of the molar value.

Below: 3 molecules and their reported pIC50.
molecule=COc1cc(Nc2ncnc(N(C)c3ccc(Cl)cc3)n2)cc(OC)c1OC endpoint_result="5.22 to 6.00"
molecule=COc1ccc(Nc2ncnc(N(CC(=O)O)c3ccc4c(c3)OCO4)n2)cc1OC endpoint_result="< 4.98"
molecule="COc1cc(Nc2ncnc(N3c4ccc(F)cc4CCC3C)n2)cc(OC)c1OC (stereo not shown)" endpoint_result="> 6.03"

// moving on: another record for pIC50
Ask | Which pIC50 is listed for COc1cc(Nc2ncnc(-n3c(NC4c5ccccc5CC4O)nc4ccccc43)n2)cc(OC)c1OC (stereo not shown) ?
Reply | 5.18 to 5.34
